target: suilysin (SLY) (Streptococcus suis, UniProt Q55996)
Sequence (Q55996 28-497 limits assumed): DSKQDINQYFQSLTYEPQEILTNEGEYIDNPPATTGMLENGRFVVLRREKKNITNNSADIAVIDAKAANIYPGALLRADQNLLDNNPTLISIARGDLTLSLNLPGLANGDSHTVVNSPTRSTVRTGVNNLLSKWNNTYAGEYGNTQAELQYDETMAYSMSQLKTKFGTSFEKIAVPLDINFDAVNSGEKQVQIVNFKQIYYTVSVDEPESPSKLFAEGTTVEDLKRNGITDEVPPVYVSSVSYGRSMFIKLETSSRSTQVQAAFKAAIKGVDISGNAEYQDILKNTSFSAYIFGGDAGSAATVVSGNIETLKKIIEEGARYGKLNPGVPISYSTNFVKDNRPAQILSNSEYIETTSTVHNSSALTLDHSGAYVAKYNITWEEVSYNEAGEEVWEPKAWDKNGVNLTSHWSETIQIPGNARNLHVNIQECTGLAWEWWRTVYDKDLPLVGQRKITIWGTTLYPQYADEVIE
pIC50: −log10 of the molar value.

>  <COMPOUND>
C[C@H]1[C@H](C)CC[C@]2(C(=O)O)CC[C@]3(C)C(=CC[C@@H]4[C@@]5(C)C[C@@H](O)[C@H](O)C(C)(C)[C@@H]5CC[C@]43C)[C@H]12 [corosolic acid]

>  <pIC50>
> 5.67

$$$$

###

system: E. coli ZJ487 (NDM-1/MCR-1); assay: microbe, parasite or virus in culture; format: cell-based, Escherichia coli; conditions: ZJ487; Mep with the named analogue at 32 μg/mL; median (range)

>  <MOLECULE>
CC1(C)CC[C@]2(C(=O)O)CC[C@]3(C)C(=CC[C@@H]4[C@@]5(C)C[C@@H](O)[C@H](O)C(C)(C)[C@@H]5CC[C@]43C)[C@@H]2C1 [maslinic acid]

>  <MIC of Mep combination>
4(2–4) μg/mL

$$$$
>  <MOLECULE>
C[C@H]1[C@H](C)CC[C@]2(C(=O)O)CC[C@]3(C)C(=CC[C@@H]4[C@@]5(C)CC[C@H](O)C(C)(C)[C@@H]5CC[C@]43C)[C@H]12 [ursolic acid]

>  <MIC of Mep combination>
2(2–4) μg/mL

$$$$
>  <MOLECULE>
CC1(C)CC[C@]2(C(=O)O)CC[C@]3(C)C(=CC[C@@H]4[C@@]5(C)C[C@@H](O)[C@H](O)[C@@](C)(CO)[C@@H]5CC[C@]43C)[C@@H]2C1 [arjunolic acid]

>  <MIC of Mep combination>
8(4–16) μg/mL

$$$$

###

tested on: E. coli ZJ487 (NDM-1/MCR-1); experiment: microbe, parasite or virus in culture; type: cell-based, Escherichia coli; conditions: ZJ487; Mep with the named analogue at 32 μg/mL; median (range)
Parameter MIC of Mep combination: see the listing below.

>  <STRUCTURE NOTATION>
CC1(C)[C@@H](O[C@H]2O[C@H](C(=O)O)[C@@H](O)[C@H](O)[C@H]2O[C@@H]2O[C@H](C(=O)O)[C@@H](O)[C@H](O)[C@H]2O)CC[C@]2(C)[C@H]3C(=O)C=C4[C@@H]5C[C@@](C)(C(=O)O)CC[C@]5(C)CC[C@@]4(C)[C@]3(C)CC[C@@H]12

>  <TESTED TARGET>
E. coli ZJ487 (NDM-1/MCR-1)

>  <MIC of Mep combination>
8(4–16) μg/mL

$$$$
>  <STRUCTURE NOTATION>
C[C@H]1[C@H](C)CC[C@]2(C(=O)O)CC[C@]3(C)C(=CC[C@@H]4[C@@]5(C)C[C@@H](O)[C@H](O)C(C)(C)[C@@H]5CC[C@]43C)[C@H]12

>  <TESTED TARGET>
E. coli ZJ487 (NDM-1/MCR-1)

>  <MIC of Mep combination>
2(2–4) μg/mL

$$$$

###

tested on: E. coli ZJ487 (NDM-1/MCR-1); test: microbe, parasite or virus in culture; assay type: cell-based, Escherichia coli; conditions: ZJ487; analogue + Mep
Parameter FIC Index: see the listing below.
PARAMETER MEASURED: FIC Index

>  <MOLECULE>
CC1(C)[C@@H](O[C@H]2O[C@H](C(=O)O)[C@@H](O)[C@H](O)[C@H]2O[C@@H]2O[C@H](C(=O)O)[C@@H](O)[C@H](O)[C@H]2O)CC[C@]2(C)[C@H]3C(=O)C=C4[C@@H]5C[C@@](C)(C(=O)O)CC[C@]5(C)CC[C@@]4(C)[C@]3(C)CC[C@@H]12 [glycyrrhizic acid]

>  <REPORTED>
0.40

$$$$
>  <MOLECULE>
CC1(C)CC[C@]2(C(=O)O)CC[C@]3(C)C(=CC[C@@H]4[C@@]5(C)C[C@@H](O)[C@H](O)C(C)(C)[C@@H]5CC[C@]43C)[C@@H]2C1 [maslinic acid]

>  <REPORTED>
0.38

$$$$
>  <MOLECULE>
C[C@H]1[C@H](C)CC[C@]2(C(=O)O)CC[C@]3(C)C(=CC[C@@H]4[C@@]5(C)C[C@@H](O)[C@H](O)C(C)(C)[C@@H]5CC[C@]43C)[C@H]12 [corosolic acid]

>  <REPORTED>
0.17

$$$$
>  <MOLECULE>
CC1(C)CC[C@]2(C(=O)O)CC[C@]3(C)C(=CC[C@@H]4[C@@]5(C)C[C@@H](O)[C@H](O)[C@@](C)(CO)[C@@H]5CC[C@]43C)[C@@H]2C1 [arjunolic acid]

>  <REPORTED>
0.40

$$$$
>  <MOLECULE>
C[C@H]1[C@H](C)CC[C@]2(C(=O)O)CC[C@]3(C)C(=CC[C@@H]4[C@@]5(C)CC[C@H](O)C(C)(C)[C@@H]5CC[C@]43C)[C@H]12 [ursolic acid]

>  <REPORTED>
0.17

$$$$
